Experiment: Compound solubility in water
Format: physicochemical
measured.metric: solubility (µg/mL)

[A] Cc1cc(-c2cccc(-c3ncccn3)c2)nc2c(C(=O)NC(C3CC3)C(F)(F)F)cnn12 (centres unmarked)
[B] CCc1cc(-c2ccccn2)nc2c(C(=O)NC(C)C3CC3)cnn12 (centres unmarked)
[C] Cc1cc(-c2cc(F)ccc2C#N)nc2c(C(=O)N[C@@H](C)C3CC3)cnn12
[D] Cc1cc(-c2cccnc2)nc2c(C(=O)NC(C)(C)C3CC3)cnn12
[E] Cc1cc(-c2cccc3c2OCO3)nc2c(C(=O)N[C@@H](C)C3CC3)cnn12
Lab note: solubility ranking, ascending, for the listed compounds. Answer format: the labels, ordered as requested. A, E, C, B, D
(A: 0.04 µg/mL, E: 0.2 µg/mL, C: 0.3 µg/mL, B: 2.5 µg/mL, D: 17.4 µg/mL)

###

Assay: Compound solubility in water
Type: physicochemical
measured.metric: solubility (µg/mL)

Reference set (3 entries):
compound	measurement.unit	experimental.value
Cc1cnc(F)c(-c2cc(C)n3ncc(C(=O)N[C@H](C4CC4)C(F)(F)F)c3n2)c1	µg/mL	1.1
Cc1cc(-c2ccc3scnc3c2)nc2c(C(=O)N[C@@H](C)C3CC3)cnn12	µg/mL	0.2
Cc1cc(-c2cccc3ncoc23)nc2c(C(=O)NC(C3CC3)C(F)(F)F)cnn12 (stereo not drawn)	µg/mL	0.02

[1] Cc1cc(-c2cccnc2)n2ncc(C(=O)NC(C)(C)C3CC3)c2n1
[2] Cc1cc(-c2cccc(F)n2)nc2c(C(=O)N[C@H](C)C3CC3)cnn12
Between item 1 and item 2 , which reported solubility is smaller? Could you answer with the label of the item you picked? 2

[P] COc1cc(C#N)cc(-c2cc(C)n3ncc(C(=O)N[C@@H](C)C4CC4)c3n2)c1
[Q] Cc1cc(-c2cc(C)n3ncc(C(=O)N[C@H](C)C(F)(F)F)c3n2)co1
Endpoint returns the identifier whose solubility is numerically larger, either P or Q . Please identify the chosen entry by its label. Q
(Q: 0.2 µg/mL, P: 0.02 µg/mL)

[A] CCc1cc(N2CCN(C(C)C)C2=O)nc2c(C(=O)NC(C)(C)C)cnn12
[B] Cc1cc(-c2cccc(F)n2)nc2c(C(=O)N[C@@H](C)C3CC3)cnn12
Of the two listed items, which has the higher solubility? First: A Second: B Response format: the label of the selected entry. A
(A: 13.5 µg/mL, B: 0.8 µg/mL)

###

Test: Compound solubility in water
Format: physicochemical
measured.metric: solubility (µg/mL)

compound	measurement.unit	experimental.value
Cc1cc(-c2cncc(F)c2)nc2c(C(=O)N[C@H](C3CC3)C(F)(F)F)cnn12 [III-126]	µg/mL	1.8
COc1cccc(-c2cc(C)n3ncc(C(=O)N[C@H](C)C(F)(F)F)c3n2)c1 [III-90]	µg/mL	2
Cc1cc(-c2cncc(C(F)(F)F)c2)nc2c(C(=O)N[C@@H](C)C(F)(F)F)cnn12 [III-287]	µg/mL	2.4

[A] Cc1cc(-c2cccc(-c3ncco3)c2)nc2c(C(=O)NC(C3CC3)C(F)(F)F)cnn12 (centres unmarked) [III-416]
[B] Cc1cc(-c2cccnc2)nc2c(C(=O)N[C@H]3CC[C@H](OC(C)(C)C)CC3)cnn12 [III-38]
Could you check which of A and B has a smaller value for solubility? Let me know the label of the one you choose. A
(A: 0.3 µg/mL, B: 18.2 µg/mL)

[A] Cc1cc(-c2cccc3ncsc23)nc2c(C(=O)NC(C)C(F)(F)F)cnn12 (centres unmarked) [III-221]
[B] Cc1cc(-c2cccc3nc[nH]c23)nc2c(C(=O)NC(C3CC3)C(F)(F)F)cnn12 (centres unmarked) [III-308]
[C] Cc1cc(-c2ccc(C#N)nc2)nc2c(C(=O)N[C@H](C3CC3)C(F)(F)F)cnn12 [III-367]
Number of compounds to sort: 3. Sort criterion: solubility, ascending. Form entry: ranked labels (order as requested). A, C, B

###

Test: Compound solubility in water
Assay type: physicochemical
measured.metric: solubility (µg/mL)

Sample records with solubility:
compound	experimental.value
Cc1cc(-c2cccnc2)n2ncc(C(=O)N[C@@H](C)C3CC3)c2n1	18
Cc1cc(N2CCCC(F)(F)C2)nc2c(C(=O)N[C@H](C3CC3)C(F)(F)F)cnn12	0.6
Cc1cc(C)n2ncc(C(=O)N[C@H](C3CC3)C(F)(F)F)c2n1	15.3

[I] Cc1cc(-c2cncc(Cl)c2)nc2c(C(=O)N[C@@H](C3CC3)C(F)(F)F)cnn12
[II] Cc1cc(-c2cccc3ocnc23)nc2c(C(=O)NC(C3CC3)C(F)(F)F)cnn12 (stereo not drawn)
[III] Cc1cc(N2CC(C(C)C)OC2=O)nc2c(C(=O)NC(C3CC3)C(F)(F)F)cnn12 (stereo not drawn)
// sort entries: solubility, high to low Please reply with the labels ordered as requested. Many thanks. III, I, II

###

Assay: Compound solubility in water
Assay type: physicochemical
measured.metric: solubility (µg/mL)

compound	solubility [µg/mL]
Cc1cc(-c2ccccn2)nc2c(C(=O)NC(C3CC3)C(F)(F)F)cnn12 (stereo not drawn) [III-36]	0.4
Cc1ncc(-c2cc(C)n3ncc(C(=O)NC(C)(C)C4CC4)c3n2)o1 [III-252]	11
Cc1cc(-c2ccc(F)c(C#N)c2)nc2c(C(=O)N[C@@H](C)C3CC3)cnn12 [III-157]	2.9
Cc1cc(C)n2ncc(C(=O)N[C@@H](C)C3CC3)c2n1 [III-1]	27
Cc1cc(-c2ccc3ocnc3c2)nc2c(C(=O)NC(C)C(F)(F)F)cnn12 (stereo not drawn) [III-169]	1.6

[A] Cc1cc(-c2cncc(C#N)c2)nc2c(C(=O)N[C@H](C3CC3)C(F)(F)F)cnn12 [III-363]
[B] Cc1cc(-c2ccncc2)nc2c(C(=O)NC(C)C3CC3)cnn12 (stereo not drawn) [III-28]
Which of the two items, A and B , has the greater recorded solubility? To answer, give the label that identifies your chosen option. B
(B: 27.6 µg/mL, A: 1.7 µg/mL)

[a] Cc1cc(-c2cccc(Cl)n2)nc2c(C(=O)N[C@H](C)C(F)(F)F)cnn12 [III-235]
[b] Cc1cc(-c2ccc3ocnc3c2)nc2c(C(=O)N[C@@H](C3CC3)C(F)(F)F)cnn12 [III-110]
Which entry shows the lesser value of solubility here, a or b ? Record your answer as the label of the chosen record. b
(b: 0.4 µg/mL, a: 6.4 µg/mL)

###

Test: Compound solubility in water
Format: physicochemical
measured.metric: solubility (µg/mL)

compound	solubility, µg/mL
Cc1oc(C#N)cc1-c1cc(C)n2ncc(C(=O)NC(C3CC3)C(F)(F)F)c2n1 (stereo not drawn)	3.2
Cc1cc(-c2cccc(C(N)=O)c2)nc2c(C(=O)NC(C3CC3)C(F)(F)F)cnn12 (stereo not drawn)	0.4
Cc1cc(-c2cc(C)n3ncc(C(=O)N[C@@H](C4CC4)C(F)(F)F)c3n2)sn1	0.9
Cc1coc(-c2cc(C)n3ncc(C(=O)N[C@@H](C4CC4)C(F)(F)F)c3n2)n1	0.5
Cc1cc(-c2sccc2C#N)nc2c(C(=O)NC(C3CC3)C(F)(F)F)cnn12 (stereo not drawn)	5.1

[P] Cc1cc(-c2ccc(F)cc2)nc2c(C(=O)NC(C)C(F)(F)F)cnn12 (stereo not drawn)
[Q] CNc1cc(C)n2ncc(C(=O)N[C@@H](C)C3CC3)c2n1
[R] Cc1coc(-c2cc(C)n3ncc(C(=O)N[C@H](C4CC4)C(F)(F)F)c3n2)n1
[S] Cc1cc(C)n2ncc(C(=O)N[C@H]3CC[C@H](OC(C)(C)C)CC3)c2n1
[T] COCc1cc(-c2ccc(F)cc2)nc2c(C(=O)N[C@@H](C)C3CC3)cnn12
Your job: order these 5 records by solubility, ascending. List labels; respect the requested ordering. P, R, T, S, Q
(P: 1.1 µg/mL, R: 1.6 µg/mL, T: 3.4 µg/mL, S: 8.9 µg/mL, Q: 23.8 µg/mL)

###

Assay: Compound solubility in water
Assay type: physicochemical
measured.metric: solubility (µg/mL)

Study these solved cases before continuing.
compound	measurement.unit	solubility
COCc1cc(-c2cccc(F)c2)nc2c(C(=O)NC(C)(C)C3CC3)cnn12	µg/mL	0.8
Cc1cc(N2CCCN(C(C)C)C2=O)nc2c(C(=O)NC(C)C(F)(F)F)cnn12 (stereo not drawn)	µg/mL	25.8
Cc1cc(-c2cccnc2)nc2c(C(=O)N[C@H](C3CC3)C(F)(F)F)cnn12	µg/mL	14.8
Cc1cc(-c2cccc(C(N)=O)n2)nc2c(C(=O)NC(C3CC3)C(F)(F)F)cnn12 (stereo not drawn)	µg/mL	1
C#CC(C)(C)NC(=O)c1cnn2c(C)cc(-c3cccc(Cl)c3)nc12	µg/mL	1.5

[I] Cc1cc(N2CCC(F)(F)C2)nc2c(C(=O)NC(C3CC3)C(F)(F)F)cnn12 (stereo not drawn)
[II] Cc1cc(-c2cncc(Cl)c2)nc2c(C(=O)N[C@H](C)C(F)(F)F)cnn12
[III] Cc1cc(Cl)nc2c(C(=O)NC(C3CC3)C(F)(F)F)cnn12 (stereo not drawn)
[IV] Cc1cc(-c2cccnc2)nc2c(C(=O)NC(C3CC3)C(F)(F)F)cnn12 (stereo not drawn)
Task for the reader: rank each entry by its solubility, from the minimum upward. Hello, could you send the labels back in the order asked? Thank you. I, II, IV, III
